target-or-system: Aβ1-42 aggregates (Homo sapiens, UniProt P05067)
Construct: Aβ1-42 aggregates (Peptide Institute, Inc, Osaka) were dissolved in 0.1 mol/L phosphate-buffered saline; purchased Peptide Institute, Inc., Osaka
Sequence (P05067 672-713 limits assumed): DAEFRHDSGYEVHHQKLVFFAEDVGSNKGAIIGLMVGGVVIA
assay-remarks: [^125I]IMPY binding inhibition experiment (Example 5)
measurement-context: inhibition of [^125I]IMPY binding to Aβ1-42 aggregates
Listing of recorded Ki by entry.

compound: CNc1ccc(-c2cnc3ccc(OCCF)cc3n2)cc1 [Compound E2]
Ki (µM): 0.758

compound: CN(C)c1ccc(-c2cnc3ccc(OCCF)cc3n2)cc1
Ki (µM): 0.111

compound: Nc1ccc(-c2cnc3ccc(OCCF)cc3n2)cc1 [Compound E1]
Ki (µM): 1.18

----------
target-or-system: Aβ1-42 aggregates (Homo sapiens, UniProt P05067)
Construct: Aβ1-42 aggregates (Peptide Institute, Inc, Osaka) were dissolved in 0.1 mol/L phosphate-buffered saline; purchased Peptide Institute, Inc., Osaka
assay-remarks: [^125I]IMPY binding inhibition experiment (Example 5)
pKi: −log10 of the molar value.

test-smiles: CN(C)c1ccc(-c2cnc3cc(OCCF)ccc3n2)cc1
pKi: 9.02
